Test system: Ba/F3 cells expressing EGFR mutations
Assay: Cell proliferation assay, Ba/F3 cells expressing EGFR mutations (CellTiter-Glo, 72 hours)
Assay type: cell-based
Conditions: BaF3 cells, EGFR L858R-T790M, CellTiter-Glo, read-out: L858R-T790M/BaF3 GI50
MEASUREMENT_KIND: GI50 (nM)

CN(C)C1CN(c2ccc3nc4n(c3c2)C23CCC(CN(CCOc5c(cnn5C)-c5cc(cn(C)c5=O)C(=O)N4)C2)C3)CC1(F)F (single isomer, unassigned) [Example A99A]
2630
CN1CCN(c2ccc3c(c2)nc2n3C34CCC(CN(CCOc5c(cnn5C)-c5cc(cn(C)c5=O)C(=O)N2)C3)C4)CC1 (centres unmarked) [Example A60A]
1400
Cn1ncc2c1OCCN1CC3CCC(C3)(C1)n1c(nc3ccc(N4CCC(N5CC(F)C5)C4)cc31)NC(=O)c1cc-2c(=O)n(C)c1 (single isomer, unassigned) [Example A94B]
14
CN1CCC2(CC1)CCN(c1ccc3nc4n(c3c1)C13CCC(CN(CCOc5c(cnn5C)-c5cc(cn(C)c5=O)C(=O)N4)C1)C3)C2 (single isomer, unassigned) [Example A88A]
361
Cn1ncc2c1OCCN1CC3CCC(C3)(C1)n1c(nc3ccc(N4CCN(C5COC5)CC4)cc31)NC(=O)c1cc-2c(=O)n(C)c1 (single isomer, unassigned) [Example A71A]
2410
CN1CCC12CCN(c1ccc3nc4n(c3c1)C13CCC(CN(CCOc5c(cnn5C)-c5cc(cn(C)c5=O)C(=O)N4)C1)C3)CC2 (single isomer, unassigned) [Example A67A]
1040
Cn1ncc2c1OCCN1CC3CCC(C3)(C1)n1c(nc3ccc(N4CCC(N5CC(F)C5)CC4)cc31)NC(=O)c1cc-2c(=O)n(C)c1 (single isomer, unassigned) [Example A87B]
13
Cn1ncc2c1OCCN1CC3CCC(C3)(C1)n1c(nc3ccc(N4CCN(C5CC5)CC4)cc31)NC(=O)c1cc-2c(=O)n(C)c1 (single isomer, unassigned) [Example A83B]
25
CN1CCC2(CC1)CN(c1ccc3nc4n(c3c1)C13CCC(CN(CCOc5c(cnn5C)-c5cc(cn(C)c5=O)C(=O)N4)C1)C3)C2 (single isomer, unassigned) [Example A77A]
375
CN1CCC2(CC1)CCN(c1ccc3nc4n(c3c1)C13CCC(CN(CCOc5c(cnn5C)-c5cc(cn(C)c5=O)C(=O)N4)C1)C3)C2 (single isomer, unassigned) [Example A88B]
8.8
CN(C)C1CCN(c2ccc3nc4n(c3c2)C23CCC(CN(CCOc5c(cnn5C)-c5cc(cn(C)c5=O)C(=O)N4)C2)C3)CC1 (single isomer, unassigned) [Example A64B]
4.9

---

Target: EGFR (d746-750 C797S) (Homo sapiens, UniProt P00533, C797S/DEL746-750)
Construct: purchased signalchem
Sequence (P00533 with tags, fused parts or gaps DEL746-750/C797S limits assumed): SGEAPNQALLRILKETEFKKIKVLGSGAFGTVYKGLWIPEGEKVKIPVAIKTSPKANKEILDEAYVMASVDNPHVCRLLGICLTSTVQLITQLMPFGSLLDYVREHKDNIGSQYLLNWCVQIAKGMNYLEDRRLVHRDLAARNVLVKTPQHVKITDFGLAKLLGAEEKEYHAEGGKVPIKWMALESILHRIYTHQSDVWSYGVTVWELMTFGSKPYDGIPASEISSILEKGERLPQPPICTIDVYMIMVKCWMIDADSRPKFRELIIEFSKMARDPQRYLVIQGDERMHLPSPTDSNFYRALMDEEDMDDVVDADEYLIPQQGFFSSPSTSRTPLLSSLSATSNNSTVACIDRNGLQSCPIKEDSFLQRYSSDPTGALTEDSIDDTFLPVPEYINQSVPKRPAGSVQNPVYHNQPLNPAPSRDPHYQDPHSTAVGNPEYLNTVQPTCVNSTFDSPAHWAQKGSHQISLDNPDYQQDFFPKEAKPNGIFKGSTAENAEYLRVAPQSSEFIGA
Assay: Inhibition of EGFR (d746-750 C797S) biochemical enzymatic activity (HTRF)
Settings: EGFR Del19-C797S, 1 mM ATP, 1 h, room temperature, read-out: IC50 (nM) @Del19-C797S
MEASUREMENT_KIND: log10 of IC50 (log10 of the value in nM)

CC(C)N1CCN(c2ccc3nc4n(c3c2)C23CCC(CN(CCOc5c(cnn5C)-c5cc(cn(C)c5=O)C(=O)N4)C2)C3)CC1 (single isomer, unassigned) [Example A108B]
-0.11
CN1CCN(c2ccc3nc4n(c3c2)C23CCC(CN(CCOc5c(cnn5C)-c5cc(cn(C)c5=O)C(=O)N4)C2)C3)CC1 (single isomer, unassigned) [Example A63B]
-0.29
CC(C)N1CCN(c2ccc3nc4n(c3c2)C[C@H](C)CCCOc2c(cnn2C)-c2cc(cn(C)c2=O)C(=O)N4)CC1 [Example A50]
0.26
CN(C)[C@H]1CCN(c2ccc3nc4n(c3c2)C23CCC(CC2)CN(CCOc2c(cnn2C)-c2cc(cn(C)c2=O)C(=O)N4)C3)C1 [Example A120]
1.15
Cc1cc2cc(n1)-c1cnn(C)c1OCCN1CC3CCC(CC3)(C1)n1c(nc3ccccc31)NC2=O [Example B1]
3.34
CN(C)[C@@H]1CCN(c2ccc3nc4n(c3c2)C23CCC(CC2)CN(CCOc2c(cnn2C)-c2cc(cn(C)c2=O)C(=O)N4)C3)C1 [Example A121]
1.28
CN1CCC2CN(c3ccc4nc5n(c4c3)C34CCC(CC3)CN(CCOc3c(cnn3C)-c3cc(cn(C)c3=O)C(=O)N5)C4)CC21 (centres unmarked) [Example A127]
0.96
Cn1ncc2c1OCCN1CC3CCC(C3)(C1)n1c(nc3cc(Br)ccc31)NC(=O)c1cc-2c(=O)n(C)c1 (centres unmarked) [Example A59]
2.15

The measurements presented in this section are drawn from patent US20260365670A1.
